The compounds listed here are annotated with their inhibition at 0.25 h, 10 µM.
- targetSystem: CYP2C19 (Homo sapiens)
- Sequence (P33261 whole entry): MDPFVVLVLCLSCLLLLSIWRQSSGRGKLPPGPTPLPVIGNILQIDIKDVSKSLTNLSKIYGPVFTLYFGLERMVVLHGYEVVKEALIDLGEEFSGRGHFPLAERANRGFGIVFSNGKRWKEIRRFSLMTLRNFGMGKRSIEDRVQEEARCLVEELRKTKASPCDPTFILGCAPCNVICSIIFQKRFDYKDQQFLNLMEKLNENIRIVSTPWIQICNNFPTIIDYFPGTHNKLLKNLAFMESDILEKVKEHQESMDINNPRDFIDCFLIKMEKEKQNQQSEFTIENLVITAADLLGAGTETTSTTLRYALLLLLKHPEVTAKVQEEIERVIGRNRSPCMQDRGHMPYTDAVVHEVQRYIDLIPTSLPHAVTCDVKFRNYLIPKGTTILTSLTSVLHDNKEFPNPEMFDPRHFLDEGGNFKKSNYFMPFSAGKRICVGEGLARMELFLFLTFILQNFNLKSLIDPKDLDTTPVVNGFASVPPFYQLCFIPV
- assaySummary: Inhibition of CYP2C19 in human liver microsomes assessed as reduction in S-mephenytoin 4-hydroxylase activity at 10 uM preincubated for 5 mins followed by addition of NADPH-regenerating system and measured after 15 mins by LC-MS/MS analysis relative to control
- Type: ADME
- measurementSetup: probe S-mephenytoin (4-hydroxylase activity), time 20 min
Field format: number, assumed %, no unit text.

Examples from the recorded data:
>  <compound>
CN1CCC[C@H]1COc1ccc(/C(=C(/CCCO)c2ccccc2)c2ccc(O)cc2)cc1.Cl

>  <targetSystem>
CYP2C19 (Homo sapiens)

>  <observable>
inhibition at 0.25 h, 10 µM

>  <recordedResult>
16.8

$$$$
>  <compound>
CN1CCC[C@H]1COc1ccc(/C(=C(/CCCO)c2ccccc2)c2ccc(Br)cc2)cc1.Cl

>  <targetSystem>
CYP2C19 (Homo sapiens)

>  <observable>
inhibition at 0.25 h, 10 µM

>  <recordedResult>
30.5

$$$$
>  <compound>
CN1CCCC1CCOc1ccc(/C(=C(/CCCO)c2ccccc2)c2ccc(Br)cc2)cc1.Cl (stereo unspecified)

>  <targetSystem>
CYP2C19 (Homo sapiens)

>  <observable>
inhibition at 0.25 h, 10 µM

>  <recordedResult>
10.6

$$$$

// query Supply recorded inhibition at 0.25 h, 10 µM for CN1CCC[C@@H]1COc1ccc(/C(=C(/CCCO)c2ccccc2)c2ccc(O)cc2)cc1.Cl here.
// result 17.4

// query Supply recorded inhibition at 0.25 h, 10 µM for CN(C)CCOc1ccc(/C(=C(/CCCO)c2ccccc2)c2ccc(O)cc2)cc1 here.
// result 21.8

// query Supply recorded inhibition at 0.25 h, 10 µM for CN1CCCC1CCOc1ccc(/C(=C(/CCCO)c2ccccc2)c2ccc(O)cc2)cc1.Cl (stereo unspecified) here.
// result 18.2

###

- assaySummary: Volume of distribution at steady state in Sprague-Dawley rat at 10 mg/kg, po or 1 mg/kg, iv measured upto 8 hrs by LC-MS/MS analysis
- Type: ADME, organism-based
- measurementSetup: in vivo, read-out: Vdss
observable: Vd (L/kg)
Field format: number, assumed L/kg, no unit text.

// query Supply recorded Vd for CN1CCC[C@H]1COc1ccc(/C(=C(/CCCO)c2ccccc2)c2ccc(Br)cc2)cc1.Cl here.
// result 16.1

###

- assaySummary: Metabolic stability in rat liver microsome assessed as parent compound remaining at 1 uM incubated for 30 mins in presence of NADPH generating system by LC-MS/MS analysis
- Type: ADME
- measurementSetup: liver microsomes, read-out: Stabilty
The compounds listed here are annotated with their remaining at 0.5 h, 1 µM.
Field format: number, assumed %, no unit text.

Examples from the recorded data:
>  <compound>
CN1CCC[C@H]1COc1ccc(/C(=C(/CCCO)c2ccccc2)c2ccc(O)cc2)cc1.Cl

>  <measurementUnit>
%

>  <remaining at 0.5 h, 1 µM>
30.3

$$$$
>  <compound>
CN1CCCC1CCOc1ccc(/C(=C(/CCCO)c2ccccc2)c2ccc(O)cc2)cc1.Cl (stereo not given)

>  <measurementUnit>
%

>  <remaining at 0.5 h, 1 µM>
22.5

$$$$

// query Supply recorded remaining at 0.5 h, 1 µM for CN1CCC[C@@H]1COc1ccc(/C(=C(/CCCO)c2ccccc2)c2ccc(O)cc2)cc1.Cl here.
// result 27.7

// query Supply recorded remaining at 0.5 h, 1 µM for CN1CCCC1CCOc1ccc(/C(=C(/CCCO)c2ccccc2)c2ccc(Br)cc2)cc1.Cl (stereo not given) here.
// result 59.9

// query Supply recorded remaining at 0.5 h, 1 µM for CN1CCC[C@H]1COc1ccc(/C(=C(/CCCO)c2ccccc2)c2ccc(Br)cc2)cc1.Cl here.
// result 66.2

###

- targetSystem: UniProt P62508
Each record is given yes if its reported IC50 is strictly below 1000 nM. Records at or above 1000 nM are given no.

Record excerpt, results attached:
>  <compound>
CN1CCN(Cc2ccc(/C(=C(/CCCO)c3ccccc3)c3ccc(O)cc3)cc2)CC1

>  <classLabel>
no

$$$$
>  <compound>
C[Si](C)(CN1CCCCC1)c1ccc(/C(=C(/CCCO)c2ccccc2)c2ccc(O)cc2)cc1

>  <classLabel>
yes

$$$$
>  <compound>
OCCC/C(=C(\c1ccc(O)cc1)c1ccc2c(c1)CCN2CCN1CCCC1)c1ccccc1

>  <classLabel>
no

$$$$
>  <compound>
Cc1ccc(/C(=C(\CCCO)c2ccccc2)c2ccc3oc(CCN4CCNCC4)cc3c2)cc1

>  <classLabel>
no

$$$$

// query Item CN1C[C@@H]1CCCOc1ccc(/C(=C(/CCCO)c2ccccc2)c2ccc(O)cc2)cc1 (stereo not given in full) : IC50 beneath 1000 nM, strictly?
// result no

###

- assaySummary: Metabolic stability in human liver microsome assessed as parent compound remaining at 1 uM incubated for 30 mins in presence of NADPH generating system by LC-MS/MS analysis
- Assay type: ADME
- measurementSetup: liver microsomes, read-out: Stabilty
observable: remaining at 0.5 h, 1 µM (%)
Field format: number, assumed %, no unit text.

>  <molecule>
CN1CCCC1CCOc1ccc(/C(=C(/CCCO)c2ccccc2)c2ccc(O)cc2)cc1.Cl (stereo not given)

>  <measurementUnit>
%

>  <recordedResult>
37.3

$$$$

// query Supply recorded remaining at 0.5 h, 1 µM for CN1CCC[C@@H]1COc1ccc(/C(=C(/CCCO)c2ccccc2)c2ccc(O)cc2)cc1.Cl here.
// result 29

// query Supply recorded remaining at 0.5 h, 1 µM for CN1CCC[C@H]1COc1ccc(/C(=C(/CCCO)c2ccccc2)c2ccc(Br)cc2)cc1.Cl here.
// result 61.2

// query Supply recorded remaining at 0.5 h, 1 µM for CN1CCC[C@H]1COc1ccc(/C(=C(/CCCO)c2ccccc2)c2ccc(O)cc2)cc1.Cl here.
// result 24.8

// query Supply recorded remaining at 0.5 h, 1 µM for CN1CCCC1CCOc1ccc(/C(=C(/CCCO)c2ccccc2)c2ccc(Br)cc2)cc1.Cl (stereo not given) here.
// result 67.3

###

- targetSystem: hERG (KCNH2) (Homo sapiens)
- Sequence (Q12809 whole entry): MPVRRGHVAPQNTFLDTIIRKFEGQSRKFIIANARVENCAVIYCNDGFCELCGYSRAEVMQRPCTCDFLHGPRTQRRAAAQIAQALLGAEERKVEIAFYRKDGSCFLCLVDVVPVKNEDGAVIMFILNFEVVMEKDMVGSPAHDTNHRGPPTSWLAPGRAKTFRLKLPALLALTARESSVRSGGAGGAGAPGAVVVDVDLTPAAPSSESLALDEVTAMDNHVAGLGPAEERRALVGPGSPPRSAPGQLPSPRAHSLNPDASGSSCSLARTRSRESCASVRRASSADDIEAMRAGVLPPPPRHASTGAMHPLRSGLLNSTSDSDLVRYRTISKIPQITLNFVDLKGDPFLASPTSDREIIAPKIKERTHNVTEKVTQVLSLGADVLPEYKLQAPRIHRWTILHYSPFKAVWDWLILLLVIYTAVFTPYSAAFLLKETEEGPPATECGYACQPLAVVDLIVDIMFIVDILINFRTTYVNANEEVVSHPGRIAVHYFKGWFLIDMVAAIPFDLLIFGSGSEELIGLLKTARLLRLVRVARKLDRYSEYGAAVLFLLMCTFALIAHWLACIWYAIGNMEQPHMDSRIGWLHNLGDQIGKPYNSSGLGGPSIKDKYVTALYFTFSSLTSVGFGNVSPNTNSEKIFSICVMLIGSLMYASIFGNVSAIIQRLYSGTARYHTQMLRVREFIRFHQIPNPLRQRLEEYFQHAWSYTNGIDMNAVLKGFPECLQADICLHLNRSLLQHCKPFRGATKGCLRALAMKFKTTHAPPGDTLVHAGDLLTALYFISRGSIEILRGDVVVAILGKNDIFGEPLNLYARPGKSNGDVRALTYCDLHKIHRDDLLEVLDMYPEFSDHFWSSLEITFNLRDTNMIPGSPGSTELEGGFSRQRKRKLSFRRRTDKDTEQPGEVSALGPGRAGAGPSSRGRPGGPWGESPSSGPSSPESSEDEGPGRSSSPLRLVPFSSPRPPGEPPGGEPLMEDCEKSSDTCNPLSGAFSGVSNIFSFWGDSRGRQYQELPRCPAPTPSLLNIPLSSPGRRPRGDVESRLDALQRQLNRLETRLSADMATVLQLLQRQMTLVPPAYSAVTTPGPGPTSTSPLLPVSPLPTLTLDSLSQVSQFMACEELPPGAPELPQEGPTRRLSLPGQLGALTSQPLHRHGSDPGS
- assaySummary: Inhibition of human ERG measured after 4 hrs by fluorescence polarization assay
- measurementSetup: human
observable: IC50 at 4 h

// query Supply recorded IC50 at 4 h for CN1CCC[C@@H]1COc1ccc(/C(=C(/CCCO)c2ccccc2)c2ccc(O)cc2)cc1.Cl here.
// result > 30 µM

###

- assaySummary: Half-life in Sprague-Dawley rat at 10 mg/kg, po or 1 mg/kg, iv measured upto 8 hrs by LC-MS/MS analysis
- Format: ADME, organism-based
- measurementSetup: in vivo
observable: half-life (h)
Field format: number, assumed h, no unit text.

// query Supply recorded half-life for CN1CCC[C@H]1COc1ccc(/C(=C(/CCCO)c2ccccc2)c2ccc(Br)cc2)cc1.Cl here.
// result 3.4

###

- assaySummary: Effective permeability of compound at 10 uM in PBS buffer at pH 7.4 after 5 hrs by LC-MS/MS analysis based PAMPA method
- Type: ADME
- measurementSetup: read-out: Peff
Each record is given class 1 if its reported Papp at 5 h, 10 µM is strictly below 0.7 ×10⁻⁶ cm/s. Records at or above 0.7 ×10⁻⁶ cm/s are given class 0.

>  <compound>
CN1CCC[C@H]1COc1ccc(/C(=C(/CCCO)c2ccccc2)c2ccc(Br)cc2)cc1.Cl

>  <classLabel>
class 0

$$$$

// query Item CN1CCCC1CCOc1ccc(/C(=C(/CCCO)c2ccccc2)c2ccc(O)cc2)cc1.Cl (stereo unspecified) : Papp at 5 h, 10 µM beneath 0.7 ×10⁻⁶ cm/s, strictly?
// result class 1

// query Item CN1CCCC1CCOc1ccc(/C(=C(/CCCO)c2ccccc2)c2ccc(Br)cc2)cc1.Cl (stereo unspecified) : Papp at 5 h, 10 µM beneath 0.7 ×10⁻⁶ cm/s, strictly?
// result class 1

// query Item CN(C)CCOc1ccc(/C(=C(/CCCO)c2ccccc2)c2ccc(O)cc2)cc1 : Papp at 5 h, 10 µM beneath 0.7 ×10⁻⁶ cm/s, strictly?
// result class 1

// query Item CN1CCC[C@H]1COc1ccc(/C(=C(/CCCO)c2ccccc2)c2ccc(O)cc2)cc1.Cl : Papp at 5 h, 10 µM beneath 0.7 ×10⁻⁶ cm/s, strictly?
// result class 0

###

- targetSystem: Estrogen-related receptor gamma (Homo sapiens)
- Sequence (P62508 whole entry): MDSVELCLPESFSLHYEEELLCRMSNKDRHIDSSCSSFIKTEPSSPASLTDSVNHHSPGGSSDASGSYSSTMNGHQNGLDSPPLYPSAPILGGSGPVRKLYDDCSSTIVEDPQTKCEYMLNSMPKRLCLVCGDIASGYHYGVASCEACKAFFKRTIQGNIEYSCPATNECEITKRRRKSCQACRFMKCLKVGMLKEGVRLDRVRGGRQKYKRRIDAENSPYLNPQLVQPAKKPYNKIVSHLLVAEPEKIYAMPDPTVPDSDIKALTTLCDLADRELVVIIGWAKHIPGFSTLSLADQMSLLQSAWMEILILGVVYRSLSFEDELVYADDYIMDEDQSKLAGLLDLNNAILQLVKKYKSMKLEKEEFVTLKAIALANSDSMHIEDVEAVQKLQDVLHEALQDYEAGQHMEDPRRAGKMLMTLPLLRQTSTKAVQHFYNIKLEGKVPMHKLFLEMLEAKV
Each record is given true if its reported IC50 is strictly below 1 µM. Records at or above 1 µM are given false.

>  <compound>
OCCC/C(=C(\c1ccc(Br)cc1)c1ccc(OCCN2CC2)cc1)c1ccccc1

>  <classLabel>
false

$$$$
>  <compound>
C[Si](C)(CN1CCNCC1)c1ccc(/C(=C(/CCCO)c2ccccc2)c2ccc(O)cc2)cc1

>  <classLabel>
false

$$$$
>  <compound>
OCCC/C(=C(\c1ccc(O)cc1)c1ccc2oc(CCN3CCCCC3)cc2c1)c1ccccc1

>  <classLabel>
true

$$$$
>  <compound>
CN1CCN(Cc2ccc(/C(=C(/CCCO)c3ccccc3)c3ccc([N+](=O)[O-])cc3)cc2)CC1

>  <classLabel>
false

$$$$
>  <compound>
CN1C[C@H]1CCCOc1ccc(/C(=C(/CCCO)c2ccccc2)c2ccc(O)cc2)cc1 (stereo partly drawn)

>  <classLabel>
true

$$$$
>  <compound>
OCCC/C(=C(\c1ccc(O)cc1)c1ccc2oc(CCN3CCNCC3)cc2c1)c1ccccc1

>  <classLabel>
true

$$$$
>  <compound>
OCCC/C(=C(\c1ccc(Br)cc1)c1ccc(CN2CCCCC2)cc1)c1ccccc1

>  <classLabel>
false

$$$$

Consider the additional compound presented here.
// query Item CN1CCN(C[Si](C)(C)c2ccc(/C(=C(/CCCO)c3ccccc3)c3ccc(O)cc3)cc2)CC1 : IC50 beneath 1 µM, strictly?
// result false
